Taken from patent US10472347B2.

pKi: −log10 of the molar value.
Here we list compounds with their recorded pKi when tested on human A2a receptor (Homo sapiens).
Sequence (P29274 whole entry): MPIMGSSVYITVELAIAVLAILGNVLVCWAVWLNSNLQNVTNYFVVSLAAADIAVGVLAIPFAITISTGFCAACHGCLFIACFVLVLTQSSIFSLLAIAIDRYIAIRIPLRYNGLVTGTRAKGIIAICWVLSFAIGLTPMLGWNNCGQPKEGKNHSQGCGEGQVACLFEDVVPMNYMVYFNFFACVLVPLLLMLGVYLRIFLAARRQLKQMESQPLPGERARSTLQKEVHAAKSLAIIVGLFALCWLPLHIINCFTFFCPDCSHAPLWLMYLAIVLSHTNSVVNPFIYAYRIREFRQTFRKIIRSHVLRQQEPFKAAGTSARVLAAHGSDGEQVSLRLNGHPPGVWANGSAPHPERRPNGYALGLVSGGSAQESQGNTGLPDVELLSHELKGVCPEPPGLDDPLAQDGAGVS
measuredEndpoint: pKi

compound | systemTested | measuredEndpoint | numericResult
Nc1nc(-n2nccn2)c(Cl)nc1C(=O)NCc1cccc2cnccc12 | human A2a receptor (Homo sapiens) | pKi | 7.45
Cc1nc(C(=O)NCc2cnc3ccccn23)c(N)nc1-c1ncco1 | human A2a receptor (Homo sapiens) | pKi | 7.89
Nc1nc(-n2cccn2)c(Cl)nc1C(=O)NCc1ccc(F)cc1F | human A2a receptor (Homo sapiens) | pKi | 7.12
Cc1nc(C(=O)NCc2cccc3cccnc23)c(N)nc1-n1nccn1 | human A2a receptor (Homo sapiens) | pKi | 8.68
Cc1nc(C(=O)NC2CCCc3cnccc32)c(N)nc1-c1ncco1 (single isomer, unassigned) [Ex-84B] | human A2a receptor (Homo sapiens) | pKi | 6.61
Cc1cncnc1CNC(=O)c1nc(C)c(-c2ncco2)nc1N | human A2a receptor (Homo sapiens) | pKi | 8.20
COc1ccccc1CNC(=O)c1nc(C)c(-c2ncco2)nc1N | human A2a receptor (Homo sapiens) | pKi | 9.42
Cc1nc(C(=O)NCc2cccc3c2ncn3CC2CC2)c(N)nc1-c1ncco1 | human A2a receptor (Homo sapiens) | pKi | 9.45
Cc1cccnc1CNC(=O)c1nc(C)c(-n2ccnn2)nc1N | human A2a receptor (Homo sapiens) | pKi | 6.72
Cc1nc(C(=O)NCc2ccc(Cl)cn2)c(N)nc1-c1ncco1 | human A2a receptor (Homo sapiens) | pKi | 8.90
Cc1nc(C(=O)NC2CCOc3ccccc32)c(N)nc1-c1ncco1 (stereo in doubt) | human A2a receptor (Homo sapiens) | pKi | 8.25
Cc1nc(C(=O)NCc2nccc3ncn(C)c23)c(N)nc1-c1ncco1 | human A2a receptor (Homo sapiens) | pKi | 8.06
C[C@@H](NC(=O)c1nc(Cl)c(-n2nccn2)nc1N)c1ccc2ccccc2n1 | human A2a receptor (Homo sapiens) | pKi | 6.88
Cc1nc(C(=O)NC2CCNc3ccccc32)c(N)nc1-n1nccn1 (stereo not shown) | human A2a receptor (Homo sapiens) | pKi | 6.83
Cc1nc(C(=O)NCc2ccc(F)nc2)c(N)nc1-c1ncco1 | human A2a receptor (Homo sapiens) | pKi | 7.58
Cc1nc(C(=O)NCc2cc(C(F)(F)F)cc(Cl)n2)c(N)nc1-c1ncco1 | human A2a receptor (Homo sapiens) | pKi | 8.75
Cc1nc(C(=O)NC2CCCc3cccnc32)c(N)nc1-c1ncco1 (single isomer, unassigned) [Ex-230B] | human A2a receptor (Homo sapiens) | pKi | 9.12
Cc1cc(Cl)cc(Cl)c1CNC(=O)c1nc(C)c(-c2cnco2)nc1N | human A2a receptor (Homo sapiens) | pKi | 8.54
Cc1nc(C(=O)NCc2ccc(C(F)(F)F)cn2)c(N)nc1-c1ncco1 | human A2a receptor (Homo sapiens) | pKi | 7.83
Nc1nc(-n2nccn2)c(Cl)nc1C(=O)NCc1cccc2ccncc12 | human A2a receptor (Homo sapiens) | pKi | 8.78
Cc1cnn(-c2nc(N)c(C(=O)N[C@@H]3CCc4ccccc43)nc2Cl)c1 | human A2a receptor (Homo sapiens) | pKi | 6.87
Cc1nc(C(=O)NCc2cccc3c2cnn3CC(F)F)c(N)nc1-c1ncco1 | human A2a receptor (Homo sapiens) | pKi | 8.76
Cc1cc(CNC(=O)c2nc(C)c(-c3ncco3)nc2N)ccc1F | human A2a receptor (Homo sapiens) | pKi | 9.51
Cc1nc(C(=O)NCc2nn(C)c3c2CCC3)c(N)nc1-c1ncco1 | human A2a receptor (Homo sapiens) | pKi | 8.53
Cc1nc(C(=O)NCc2cccc3c2ncn3C(C)C)c(N)nc1-c1ncco1 | human A2a receptor (Homo sapiens) | pKi | 8.99
CCC(NC(=O)c1nc(C)c(-c2ncco2)nc1N)c1ccccn1 (single isomer, unassigned) [Ex-94A] | human A2a receptor (Homo sapiens) | pKi | 8.06
Nc1nc(-c2cnco2)c(Cl)nc1C(=O)NCc1cccc2cccnc12 | human A2a receptor (Homo sapiens) | pKi | 8.62
Cc1nc(C(=O)NCC(=O)c2ccc(F)cc2)c(N)nc1-c1ncco1 | human A2a receptor (Homo sapiens) | pKi | 7.84
Nc1nc(-n2cncn2)c(Cl)nc1C(=O)NCc1ccc(F)cc1F | human A2a receptor (Homo sapiens) | pKi | 6.20
Nc1nc(-n2nccn2)c(Cl)nc1C(=O)NCCc1ccccc1Br | human A2a receptor (Homo sapiens) | pKi | 7.46
Cc1nc(C(=O)NC2CCCC(O)CC2)c(N)nc1-c1ncco1 (single isomer, unassigned) [Ex-165C] | human A2a receptor (Homo sapiens) | pKi | 8.12
Cc1nc(C(=O)NC(C)(C)c2ccccn2)c(N)nc1-c1cnco1 | human A2a receptor (Homo sapiens) | pKi | 6.39
Cc1nc(C(=O)NC2CC(O)c3cccnc32)c(N)nc1-c1ncco1 (stereo not shown) [Ex-223] | human A2a receptor (Homo sapiens) | pKi | 8.53
Cc1nc(C(=O)NC2CCc3c(Cl)ccnc32)c(N)nc1-c1ncco1 (single isomer, unassigned) [Ex-244B] | human A2a receptor (Homo sapiens) | pKi | 8.89
Cc1nc(C(=O)NCc2cccn2C)c(N)nc1-c1ncco1 | human A2a receptor (Homo sapiens) | pKi | 9.41
Cc1nc(C(=O)NC2CC(O)c3cccnc32)c(N)nc1-c1ncco1 (stereo not shown) [Ex-240A] | human A2a receptor (Homo sapiens) | pKi | 7.39
Cc1cccnc1CNC(=O)c1nc(C)c(-c2ncc(C(F)(F)F)o2)nc1N | human A2a receptor (Homo sapiens) | pKi | 7.20

----------
# systemTested: human A2a receptor (Homo sapiens)
measuredEndpoint: log10 Ki (log10 of the value in nM)

molecule | numericResult
CCn1cc2cccc(CNC(=O)c3nc(C)c(-c4ncco4)nc3N)c2n1 [Ex-216] | -0.91
Cc1cnn(-c2nc(N)c(C(=O)NCc3cncc4ccccc34)nc2Cl)c1 [Ex-361] | 1.80
Cc1nc(C(=O)NCc2ncccc2F)c(N)nc1-c1ncco1 [Ex-20] | -0.44
Cc1nc(C(=O)NCc2c(F)cccc2F)c(N)nc1-c1ncco1 [Ex-11] | -0.90
COCCNC(=O)c1nc(C)c(-c2ncco2)nc1N [Ex-123] | 1.24
Cc1nc(C(=O)NCc2ccns2)c(N)nc1-c1ncco1 [Ex-40] | 1.16
Cc1nc(C(=O)NC2CCCC2(F)F)c(N)nc1-c1ncco1 (single isomer, unassigned) [Ex-191A] | 0.12
Cc1nc(C(=O)NCc2ccncc2Cl)c(N)nc1-c1ncco1 [Ex-46] | 0.75
Cc1nc(C(=O)NC2CCc3ccc(Cl)nc32)c(N)nc1-c1ncco1 (single isomer, unassigned) [Ex-245B] | 0.64
Cc1nc(C(=O)NC2c3ncccc3CC2O)c(N)nc1-c1ncco1 (single isomer, unassigned) [Ex-238B] | -0.03
Cc1nc(C(=O)NCc2cccn(C)c2=O)c(N)nc1-c1ncco1 [Ex-50] | 0.10
Cc1nc(C(=O)NCc2cccc3c2ncn3C)c(N)nc1-c1ncco1 [Ex-218] | -0.51
Cc1nc(C(=O)NCc2ccno2)c(N)nc1-c1ncco1 [Ex-12] | 0.99
Nc1nc(-n2nccn2)c(Cl)nc1C(=O)NC1CCNc2ccccc21 (stereo not shown) [Ex-293] | 2.03
Cc1nc(C(=O)N[C@@H]2CCC[C@H]2F)c(N)nc1-c1ncco1 [Ex-206] | 0.57
Nc1nc(-n2nccn2)c(Cl)nc1C(=O)NCc1cnn2ccccc12 [Ex-295] | 1.13
COc1ccc2c(c1)CCC2NC(=O)c1nc(C)c(-c2ncco2)nc1N (single isomer, unassigned) [Ex-231B] | 1.02
Cc1nc(C(=O)NC2CCc3ccccc3C2)c(N)nc1-c1ncco1 (single isomer, unassigned) [Ex-233A] | 0.06
CN1CCC(NC(=O)c2nc(Cl)c(-n3nccn3)nc2N)c2ccccc21 (stereo not shown) [Ex-322] | 1.79
Nc1nc(-n2nccn2)c(Cl)nc1C(=O)N1CCc2cccc(Br)c2C1 [Ex-292] | 1.74
COC(=O)[C@@H](NC(=O)c1nc(Cl)c(-n2nccn2)nc1N)c1ccccc1 [Ex-323] | 1.81
N#Cc1nc(C(=O)NCc2cccc3cccnc23)c(N)nc1-n1cccn1 [Ex-385] | -0.22
Cc1nc(C(=O)NCc2nnc3n2CCC3)c(N)nc1-c1ncco1 [Ex-160] | 2.42
Cc1ccc(CNC(=O)c2nc(C)c(-c3ncco3)nc2N)nc1-c1ccccn1 [Ex-88] | 0.79
Cc1nc(C(=O)NC2CCCC(O)CC2)c(N)nc1-c1ncco1 (single isomer, unassigned) [Ex-165D] | 0.97
Cc1nc(C(=O)N[C@@H]2CCC[C@H]2N(C)C)c(N)nc1-c1ncco1 [Ex-204] | 3.18
Cc1nc(C(=O)N[C@H]2c3ccccc3C[C@@H]2O)c(N)nc1-c1ncco1 [Ex-130] | 0.53
Cc1cnc(-c2nc(N)c(C(=O)NCc3ncccc3C)nc2C)o1 [Ex-383] | 0.81
Cc1nc(C(=O)NCc2nccn2C)c(N)nc1-c1ncco1 [Ex-15] | 0.10
COc1ccc(C)c(CNC(=O)c2nc(C)c(-c3ncco3)nc2N)n1 [Ex-80] | 0.20
Cc1nc(C(=O)NC2CCc3ccc(Cl)nc32)c(N)nc1-c1ncco1 (single isomer, unassigned) [Ex-245A] | 0.83
Cc1nc(C(=O)NCc2cc3ccccc3cn2)c(N)nc1-c1ncco1 [Ex-29] | -0.47
Cc1nc(C(=O)NC2CCN(c3ncccn3)CC2)c(N)nc1-c1ncco1 [Ex-66] | 1.39
Nc1nc(-n2cccn2)c(Cl)nc1C(=O)NCc1ccc(F)cc1 [Ex-330] | 1.79
Cc1nc2c(o1)CN(CCNC(=O)c1nc(C)c(-c3ncco3)nc1N)CC2 [Ex-190] | 1.09
Cc1nc(C(=O)NC2Cc3ccccc3C2)c(N)nc1-c1ncco1 [Ex-235] | -0.61
Cc1nc(C(=O)NCc2n[nH]c3c2CCC3)c(N)nc1-c1ncco1 [Ex-103] | -0.45
